Attribute: viability, T/C
- System: 292921-168-R-J2-PDC complex spheroid viability
- experimental-protocol: Anticancer human tumor 292921-168-R-J2-PDC patient-derived pancreatic carcinoma cell line growth inhibition
- experimental-context: second compound 10 µM; first compound 0.000316 µM; active compounds read low
Numbers only here, please. The scale is %.

Here's what some known entries look like.
{"columns": ["compound", "viability, T/C, %"],
 "data": [
  ["CC(C)CC(NC(=O)C(Cc1ccccc1)NC(=O)c1cnccn1)B(O)O (centres undefined) + NC1CCC(NC2CC2c2ccccc2)CC1", 12.2],
  ["Cn1ncnc1C1c2n[nH]c(=O)c3cc(F)cc(c23)NC1c1ccc(F)cc1 (centres undefined) + NC1CCC(NC2CC2c2ccccc2)CC1", 59],
  ["CC(C)CC(NC(=O)C(Cc1ccccc1)NC(=O)c1cnccn1)B(O)O (centres undefined) + NC1CC1c1ccc(-c2cccc(O)c2)cc1", 12.3]
]}

Note: attention shifts to another entry.
Fill blank: measured viability, T/C of the compound Cn1ncnc1C1c2n[nH]c(=O)c3cc(F)cc(c23)NC1c1ccc(F)cc1 (centres undefined) + NC1CC1c1ccc(-c2cccc(O)c2)cc1 is ____. 51.9

---

- System: 292921-168-R-J2-PDC complex spheroid viability
- experimental-protocol: Anticancer human tumor 292921-168-R-J2-PDC cell line growth inhibition;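 note: seven day compound exposure before luminescent viability read; 100% = DMSO vehicle control wells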
- experimental-context: second compound 0.316 µM; first compound 3 µM; active compounds read low
Quick list: viability, T/C per entry.
Kindly answer with a numeric value in %, unit omitted.

{"columns": ["molecule", "tested-system", "endpoint-name", "units", "observed-value"],
 "data": [
  ["O=C(C=Cc1cccc(S(=O)(=O)Nc2ccccc2)c1)NO + NC1CCC(NC2CC2c2ccccc2)CC1", "292921-168-R-J2-PDC complex spheroid viability", "viability, T/C", "%", 0.38],
  ["Nc1ccccc1NC(=O)c1ccc(CNC(=O)OCc2cccnc2)cc1 + NC1CCC(NC2CC2c2ccccc2)CC1", "292921-168-R-J2-PDC complex spheroid viability", "viability, T/C", "%", 0.24]
]}

Now look at this one.
What value of viability, T/C has been reported for the following molecule? CCN(c1cc(-c2ccc(CN3CCOCC3)cc2)cc(C(=O)NCc2c(C)cc(C)[nH]c2=O)c1C)C1CCOCC1 + NC1CC1c1ccc(-c2cccc(O)c2)cc1 21.7

---

- Test system: 292921-168-R-J2-PDC complex spheroid viability
- experimental-protocol: Anticancer human tumor 292921-168-R-J2-PDC cell line growth inhibition;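 note: seven day compound exposure before luminescent viability read; 100% = DMSO vehicle control wells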
- experimental-context: second compound 3.16 µM; first compound 0.316 µM; active compounds read low
// reported viability, T/C for each item listed
Numbers only; they are read as %.

Previously resolved entries follow.
{"columns": ["compound", "observed-value"],
 "data": [
  ["O=C(C=Cn1cnc(-c2cc(C(F)(F)F)cc(C(F)(F)F)c2)n1)NNc1cnccn1 + NC1CCC(NC2CC2c2ccccc2)CC1", 8.57],
  ["CC(C)c1c(-c2ccccc2)nc2c(C#N)c[nH]n2c1=O + NC1CC1c1ccc(-c2cccc(O)c2)cc1", 64.4],
  ["COc1ccc([C@@H](O)c2cc(-c3ncnc4cc(N5CCOCC5)ccc34)c(F)cc2Cl)nn1 + NC1CC1c1ccc(-c2cccc(O)c2)cc1", 38.8]
]}

Okay, now this compound:
I am curious: what viability, T/C value has been reported for COc1cc(Nc2ncc3c(n2)-c2ccc(Cl)cc2C(c2c(F)cccc2OC)=NC3)ccc1C(=O)O + NC1CCC(NC2CC2c2ccccc2)CC1 ? 21.5

Where do these numbers come from? They come from PubChem BioAssay AID1918934.
